Biological target: T1, UNK ZnF1-3 (human, UniProt Q9C0B0 31-174)
T1 sequence: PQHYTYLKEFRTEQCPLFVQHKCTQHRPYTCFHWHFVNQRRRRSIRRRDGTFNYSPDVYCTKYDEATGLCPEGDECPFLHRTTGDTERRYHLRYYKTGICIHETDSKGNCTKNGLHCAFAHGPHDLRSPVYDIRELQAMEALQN
Experiment: nsRBNS (natural sequence RNA bind-n-seq); RBNS binding buffer (assumed for nsRBNS): 25 mM Tris pH 7.5, 150 mM KCl, 3 mM MgCl2, 0.01% Triton X-100, 500 ug/ml BSA, 20 U/ml SUPERase-In, 4 C; UNK is unkempt and MSI1 is Musashi-1; names of the RNAs are library labels; protein concentration not given here; high values mean tight binding
The full ranking holds about 24,000 sequences; the median of “enrichment r” is about 0.99, and the highest 2% start at about 3.7. The sample as a whole holds a higher share of the highest values than the screen did.
Classes (binding signal): lower level: < 0.9 enrichment R; middle level: ≥ 0.9 enrichment R and < 3 enrichment R; upper level: ≥ 3 enrichment R

Completed entries (count: 10):
[[record]]
binder = "chr1:163116941:163116942:-_ENSG00000143248_ENST00000313961|hu_mus|FALSE|FALSE (ssRNA) RNA: GGGAGUUCUACAGUCCGACGAUCACAAAGCAGUCAGAAAGAACCAAAAAAAAGAAAAAAAAAAGAAAAAGAAAAAAGUGAGGGCUCUUAGACAACAGAUCCACAUAACCAAACUAACAUGAGCGAAAGAGUUAGCAACACAGCCAACAGAGGAUUGAGCAUCA"
answer_label = "upper level"

[[record]]
binder = "chr3:49547525:49547526:-_ENSMUSG00000037892_ENSMUST00000035931|mus_mus|motif|central (ssRNA) RNA: GGGAGUUCUACAGUCCGACGAUCGUUCAUAUGCUAAAAAUACAAGCAAAACUGUGAUAGCAUGCACAAGAGACAAAAGCGGAAGGUGAAUAAUUAUAGCCAAAAAAAGAGAGACAAUGCAGUCGAUACAAAUGUUCAAGUAUGCAACAGAGGAUUGAGCAUCA"
answer_label = "middle level"

[[record]]
binder = "chr4:76721835:76721836:+_ENSG00000138768_ENST00000264904|hu_mus|hu_hu_hu_mus_True|58_108 (ssRNA) RNA: GGGAGUUCUACAGUCCGACGAUCGUUGGCUGGGGUUUUCUGAGACGCUCUGGAAUAUAACUCAUGUUUGCUAAUAAUCCUAGUUUCCUCUAUGAAAUUCUCUUUGCCAAUCCUCUUCUCUAUUAGUUGCUUUAGUUUCUCUUUCAACAGAGGAUUGAGCAUCA"
answer_label = "lower level"

[[record]]
binder = "chr1:154935262:154935263:-_ENSG00000160691_ENST00000448116|hu_hu|FALSE|FALSE (ssRNA) RNA: GGGAGUUCUACAGUCCGACGAUCAUUUUGUGCUCAAGAAUAAGCAAUGGAAAAGAAAAUAGGAAAGUAAGUCUACAGCCCUAAAAUAUAUGCAUAUAAAACUUUAAAAGAAUGCAGUUCCAACUCUACAGAUGGUAUGUGGGGCAACAGAGGAUUGAGCAUCA"
answer_label = "upper level"

[[record]]
binder = "chr12:39756943:39756944:-_ENSG00000139116_ENST00000544797|hu_mus|hu_hu_hu_mus_False|1_18 (ssRNA) RNA: GGGAGUUCUACAGUCCGACGAUCGGUUUGGCUGUUACCCCCAAGGGAAUCCUGCAAGAGUCUUGUCAGCUUAGAGUCUCUGUAAGGGACAUGGGUGGCUCUCUUGCUCUUGUCCCCCAAGGCACUUAUUACAUUCCCAAGUGCCAACAGAGGAUUGAGCAUCA"
answer_label = "lower level"

[[record]]
binder = "chr1:163112212:163112213:-_ENSG00000143248_ENST00000313961|hu_hu|hu_hu_hu_mus_False|1_18 (ssRNA) RNA: GGGAGUUCUACAGUCCGACGAUCUUUUAUUAUCAGUAAGAGUGAGUUACAUACUAGGCAAAGUAUUGGAUACAAUAAUCAGGAAACAAACACUAUUGGUCCAGAAUUUAAAACUUUUGGGAUAAAUUGCUGGCACAGGAUUUACAACAGAGGAUUGAGCAUCA"
answer_label = "middle level"

[[record]]
binder = "chr11:87794696:87794697:-_ENSMUSG00000020483_ENSMUST00000020775|mus_hu|motif|central (ssRNA) RNA: GGGAGUUCUACAGUCCGACGAUCGCCUUUUAUUUUGUAUAGGGAAAGAAAGAGAAAAGGGAGAGGUGGGAGAGAUUUCCGGGUGCAAUACAACCAAAAAAUAUUUUUAAAGUCUUGAAAAAUAAACAUAAAGCAGCCUUCUUCCAACAGAGGAUUGAGCAUCA"
answer_label = "upper level"

[[record]]
binder = "chrX:71549762:71549763:+_ENSMUSG00000019087_ENSMUST00000019231|mus_mus|mus_mus_mus_hu_False|8_18 (ssRNA) RNA: GGGAGUUCUACAGUCCGACGAUCAAACCCGUGUACUUCUUAUUGUUAGCACAACAUCACCAGAAAACGAUAACGACAGCCAAGCAGGACAGACAGUUAAGUAGUACUUCCACACUCCGCAAAUUCAAGGAACCUCAAACCUUACAACAGAGGAUUGAGCAUCA"
answer_label = "middle level"

[[record]]
binder = "chr3:49547525:49547526:-_ENSMUSG00000037892_ENSMUST00000035931|mus_hu|motif|central (ssRNA) RNA: GGGAGUUCUACAGUCCGACGAUCGUUCUUAUACUAAAAAUAAAAGCAAAAAUAUGAGAUCAUGCACUGGAGACAAAAGCGGAAAAUGAAUAGUUAUAACAAAGAAAGACAAUAUUCCAAAAGAUUAAAAUGUUCAAGUAUUGUCAACAGAGGAUUGAGCAUCA"
answer_label = "upper level"

[[record]]
binder = "chr6:144948378:144948379:-_ENSMUSG00000030268_ENSMUST00000111742|mus_mus|FALSE|FALSE (ssRNA) RNA: GGGAGUUCUACAGUCCGACGAUCAGGGAACACCAGGCCAGCAGGGCUGCAUGGGGAGCCCAAAUCUGCCCCAAUUAGAAACAAACAAACAAAAAAAAAACAACCAAAACAAAAAACAAAAGAACCUCACCAGCAAAAGAAACACAACAGAGGAUUGAGCAUCA"
answer_label = "upper level"


Next binder, please.
// bin(item) where item = 33058320_33060047_1444_CDS_ENSG00000170266_ENST00000307363|human|control|control (ssRNA) RNA: GGGAGUUCUACAGUCCGACGAUCUCCCUGGGGGAUCCCAUCCACAGCAACAUAUGCUCGAUCGUGGACUCCAUUGAGGGGUGAAGAGAGAGGUGCUGGGUUGCUGCAAUCUUGAGGAAGUGUUGUCCGGUACAGCACAAACCCCAACAGAGGAUUGAGCAUCA
middle level
